These entries and their values trace back to patent US7626005B2.

Entries and their Ki
# target: AAC(6′)-Ii (Enterococcus faecium, UniProt Q47764)
# Sequence (Q47764 1-182): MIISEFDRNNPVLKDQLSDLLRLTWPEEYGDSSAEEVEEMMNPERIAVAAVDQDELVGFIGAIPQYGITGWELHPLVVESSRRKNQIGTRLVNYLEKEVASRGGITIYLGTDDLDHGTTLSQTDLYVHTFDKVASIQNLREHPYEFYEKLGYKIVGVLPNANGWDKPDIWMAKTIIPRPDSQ
# measurement_protocol: AAC6′-Ii inhibition assay (DTDP-coupled, varying AcCoA)
# Format: biochemical
# Design: made in house; host or cells: Escherichia coli BL21
# condition: Ki (μM), Table 1; inhibition of AAC(6′)-Ii, varying AcCoA

compound	unit_label	relation_qualifier	Ki
COC(=O)C(CCCCNC(=O)CCSCCNC(=O)CCNC(=O)C(O)C(C)(C)COP(=O)(O)OP(=O)(O)OCC1OC(n2cnc3c(N)ncnc32)C(O)C1OP(=O)(O)O)NC(C)=O (stereo not shown)	µM	≥	30
CC(C)(COP(=O)(O)OP(=O)(O)OCC1OC(n2cnc3c(N)ncnc32)C(O)C1OP(=O)(O)O)C(O)C(=O)NCCC(=O)NCCSCC(=O)NCC1OC(OC2C(N)CC(N)C(O)C2OC2OC(CO)C(O)C2O)C(N)C(O)C1O (stereo not shown)	µM	=	0.119
COC(=O)C(CCCCNC(=O)CSCCNC(=O)CCNC(=O)C(O)C(C)(C)COP(=O)(O)OP(=O)(O)OCC1OC(n2cnc3c(N)ncnc32)C(O)C1OP(=O)(O)O)NC(C)=O (stereo not shown)	µM	≥	130
CC(C)(COP(=O)(O)OP(=O)(O)OCC1OC(n2cnc3c(N)ncnc32)C(O)C1OP(=O)(O)O)C(O)C(=O)NCCC(=O)NCCSCC(=O)NCC1OC(OC2C(N)CC(N)C(O)C2O)C(N)C(O)C1O (stereo not shown) [Compound 10a]	µM	=	0.076
